assay_name: Distribution coefficient (LogD) in octanol/PBS
Assay type: physicochemical
condition_summary: radiolabeled peptide (111In-labeled where the label names no radiometal); shake-flask octanol/PBS, 100 pmol/mL, 15 min shaking at 1500 rpm, γ-counter; mean ± SD, n = 8
Where a SMILES comes first, the peptide text is derived from it. [ ]: non-standard residue; d: D form. The star is where a group is joined. DOTA = O=C(O)CN1CCN(CC(=O)O)CCN(CC(=O)*)CCN(CC(=O)O)CC1; 1Nal = N[C@@H](Cc1cccc2ccccc12)C(=O)O; NMeNle = CCCC[C@H](NC)C(=O)O
result_type: LogD
The reply should be a number, written without any unit.

Known results for molecules:
molecule	LogD
CCCC[C@@H](C(=O)N[C@@H](CC(=O)O)C(=O)N[C@@H](Cc1cccc2ccccc12)C(N)=O)N(C)C(=O)[C@H](Cc1c[nH]c2ccccc12)NC(=O)CNC(=O)[C@H](Cc1ccc(O)cc1)NC(=O)[C@H](C)NC(=O)[C@@H](CCCCN)NC(=O)CN1CCN(CC(=O)O)CCN(CC(=O)O)CCN(CC(=O)O)CC1 [DOTA-[DLys^1]MGS5] ({DOTA}-[dK]AYGW[NMeNle]D[1Nal]-NH2)	−1.3
CCCC[C@@H](C(=O)N[C@@H](CC(=O)O)C(=O)N(C)[C@@H](Cc1cccc2ccccc12)C(N)=O)N(C)C(=O)[C@H](Cc1c[nH]c2ccccc12)NC(=O)CNC(=O)[C@H](Cc1ccc(O)cc1)NC(=O)[C@H](C)NC(=O)[C@@H](CCC(=O)O)NC(=O)CN1CCN(CC(=O)O)CCN(CC(=O)O)CCN(CC(=O)O)CC1 [[^68Ga]Ga-DOTA-[(N-Me)1Nal^8]MGS5, metal not drawn]	−2.2
CCCC[C@@H](C(=O)N[C@@H](CC(=O)O)C(=O)N(C)[C@@H](Cc1cccc2ccccc12)C(N)=O)N(C)C(=O)[C@H](Cc1c[nH]c2ccccc12)NC(=O)CNC(=O)[C@H](Cc1ccc(O)cc1)NC(=O)[C@H](C)NC(=O)[C@@H](CCC(=O)O)NC(=O)CN1CCN(CC(=O)O)CCN(CC(=O)O)CCN(CC(=O)O)CC1 [DOTA-[(N-Me)1Nal^8]MGS5]	−2.4
CCCC[C@@H](C(=O)N[C@@H](CC(=O)O)C(=O)N[C@@H](Cc1ccc2ccccc2c1)C(N)=O)N(C)C(=O)[C@H](Cc1c[nH]c2ccccc12)NC(=O)CNC(=O)[C@H](Cc1ccc(O)cc1)NC(=O)[C@H](C)NC(=O)[C@@H](CCC(=O)O)NC(=O)CN1CCN(CC(=O)O)CCN(CC(=O)O)CCN(CC(=O)O)CC1 [DOTA-[2Nal^8]MGS5]	−1.7

// lookup LogD for CCCC[C@@H](C(=O)N[C@@H](CC(=O)O)C(=O)N[C@@H](Cc1cccc2ccccc12)C(=O)NC)N(C)C(=O)[C@H](Cc1c[nH]c2ccccc12)NC(=O)CNC(=O)[C@H](Cc1ccc(O)cc1)NC(=O)[C@H](C)NC(=O)[C@@H](CCC(=O)O)NC(=O)CN1CCN(CC(=O)O)CCN(CC(=O)O)CCN(CC(=O)O)CC1 [DOTA-MGS5[NHCH3]]
−2.3

Quick one: LogD of CCCC[C@@H](C(=O)N[C@@H](CC(=O)O)C(=O)N[C@@H](Cc1ccccc1)C(N)=O)N(C)C(=O)[C@H](Cc1c[nH]c2ccccc12)NC(=O)CNC(=O)[C@H](Cc1ccc(O)cc1)NC(=O)[C@H](C)NC(=O)[C@@H](CCC(=O)O)NC(=O)CN1CCN(CC(=O)O)CCN(CC(=O)O)CCN(CC(=O)O)CC1 [DOTA-[Phe^8]MGS5] ({DOTA}-[dE]AYGW[NMeNle]DF-NH2) ?
−3.2
